This collection of values is drawn from ChEMBL document CHEMBL4118174.

# assay.remarks: Fraction unbound in rat plasma
# Format: ADME, cell-free
endpoint.name: fraction unbound

Recorded fraction unbound, per entry:
O=C(N[C@H]1CCCC[C@@H]1O)C1CN(Cc2ccc(-n3cccn3)cc2)c2c(F)cccc2O1 (stereo partly drawn)    < 0.01
O=C(N[C@H]1CCCC[C@@H]1O)C1CN(Cc2ccc(-n3cccn3)cc2)c2cc(F)ccc2O1 (stereo partly drawn)    < 0.01

// next entry
Request: I would be grateful if you could share the reported fraction unbound for O=C(N[C@H]1CCCC[C@@H]1O)C1CN(Cc2ccc(-n3cccn3)cc2)c2ccc(F)cc2O1 (stereo partly drawn) .
Result: < 0.01

###

# assay.remarks: Brain to plasma permeability coefficient, Kp of compound in Sprague-Dawley rat at 0.20 to 0.25 mg/kg administered as iv cassette dose measured at 0.25 hrs post dose
# Format: ADME, organism-based
# condition.summary: Sprague-Dawley, brain and plasma
endpoint.name: Kp at 0.25 h

A = O=C(NC1CCOCC1)C1CN(Cc2ccc(-n3cccn3)cc2)c2ccccc2O1 (stereo not given)
B = O=C(N[C@H]1CCC[C@@H]1O)C1CN(Cc2ccc(-n3cccn3)cc2)c2ccccc2O1 (stereo not given in full)
Request: Which shows the larger Kp at 0.25 h value: A or B ? I would appreciate it if you answered with the label of your choice.
Result: A

###

# measurement.target: Muscarinic acetylcholine receptor M1 (Homo sapiens)
# Sequence (P11229 whole entry): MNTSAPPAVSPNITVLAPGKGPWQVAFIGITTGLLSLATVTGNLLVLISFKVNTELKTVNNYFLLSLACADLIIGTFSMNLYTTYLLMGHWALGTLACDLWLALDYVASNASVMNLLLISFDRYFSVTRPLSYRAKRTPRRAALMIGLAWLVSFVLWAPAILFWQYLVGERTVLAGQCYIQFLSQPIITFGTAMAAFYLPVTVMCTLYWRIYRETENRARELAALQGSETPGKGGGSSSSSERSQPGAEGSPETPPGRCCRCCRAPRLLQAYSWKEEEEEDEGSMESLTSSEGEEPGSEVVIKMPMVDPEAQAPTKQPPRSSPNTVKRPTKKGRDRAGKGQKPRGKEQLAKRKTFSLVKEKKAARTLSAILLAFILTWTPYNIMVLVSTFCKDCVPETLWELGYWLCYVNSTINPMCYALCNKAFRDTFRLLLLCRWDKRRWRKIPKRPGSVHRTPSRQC
# assay.remarks: Positive allosteric modulation of human muscarinic acetylcholine M1 receptor expressed in CHO-NFAT cells assessed as potentiation of acetylcholine-induced calcium mobilization after 4 hrs by CCF4-AM dye-based assay
# Assay type: functional, cell-based
endpoint.name: EC50

Request: Param readout= EC50; system= Muscarinic acetylcholine receptor M1 (Homo sapiens); entry= Cc1ccc(Cc2cc3c(=O)n([C@H]4CCCC[C@@H]4O)cnc3c3ccccc23)cn1 [MK-7622] ; returns value.
Result: < 100 nM

###

# measurement.target: Muscarinic acetylcholine receptor M1 (Rattus norvegicus)
# Sequence (P08482 whole entry): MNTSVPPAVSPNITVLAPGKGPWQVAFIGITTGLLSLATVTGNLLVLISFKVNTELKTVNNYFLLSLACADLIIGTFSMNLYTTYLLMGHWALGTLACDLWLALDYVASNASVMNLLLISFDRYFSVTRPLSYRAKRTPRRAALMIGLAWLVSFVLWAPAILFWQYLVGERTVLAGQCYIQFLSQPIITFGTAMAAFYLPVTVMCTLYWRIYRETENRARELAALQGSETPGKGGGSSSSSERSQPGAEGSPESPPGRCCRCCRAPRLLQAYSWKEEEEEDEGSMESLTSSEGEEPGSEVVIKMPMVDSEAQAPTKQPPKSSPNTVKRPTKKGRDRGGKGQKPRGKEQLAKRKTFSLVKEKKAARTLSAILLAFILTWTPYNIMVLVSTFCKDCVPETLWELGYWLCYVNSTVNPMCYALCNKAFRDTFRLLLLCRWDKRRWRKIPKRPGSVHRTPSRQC
# assay.remarks: Positive allosteric modulation of rat muscarinic acetylcholine M1 receptor
endpoint.name: pEC50
A value of pEC50 is the negative decimal logarithm of a concentration given in moles per litre.

Request: Name the recorded pEC50 for `O=C(N[C@H]1CCCC[C@@H]1O)[C@H]1CN(Cc2ccc(-n3cccn3)cc2)c2ccccc2O1` .
Result: 6.60
